Consider the following binders and their measured hCD71:HSA readings.
Test target: T1, recombinant biotinylated CD71 extracellular domain (Sino Biologics) with an N-terminal 6His tag (human, UniProt P02786 89-760, biotinylated (site not stated))
T1 construct: extracellular domain; also called hCD71; huCD71 ECD
T1 sequence (P02786 other isoform, or with tags, fused parts or gaps): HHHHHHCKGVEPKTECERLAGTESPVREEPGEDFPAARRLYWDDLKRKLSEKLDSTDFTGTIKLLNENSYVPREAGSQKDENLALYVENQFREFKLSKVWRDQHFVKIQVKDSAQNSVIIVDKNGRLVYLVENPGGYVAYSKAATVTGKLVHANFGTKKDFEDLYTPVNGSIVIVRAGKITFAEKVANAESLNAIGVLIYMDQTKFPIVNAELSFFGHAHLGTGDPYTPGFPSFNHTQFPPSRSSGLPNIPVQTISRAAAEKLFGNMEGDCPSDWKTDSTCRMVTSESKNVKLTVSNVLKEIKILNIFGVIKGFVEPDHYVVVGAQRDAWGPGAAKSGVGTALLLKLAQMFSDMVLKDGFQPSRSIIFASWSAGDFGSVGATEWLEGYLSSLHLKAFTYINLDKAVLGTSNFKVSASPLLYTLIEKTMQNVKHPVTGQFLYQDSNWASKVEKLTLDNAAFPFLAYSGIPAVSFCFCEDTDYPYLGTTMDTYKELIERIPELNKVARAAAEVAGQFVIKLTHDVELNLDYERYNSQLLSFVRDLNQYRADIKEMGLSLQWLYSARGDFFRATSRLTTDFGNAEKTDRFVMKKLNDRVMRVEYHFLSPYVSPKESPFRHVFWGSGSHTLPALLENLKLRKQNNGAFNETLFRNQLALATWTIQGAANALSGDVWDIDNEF
Experimental details: primary solution ELISA screen, signal on hCD71 over HSA
# respond with the number and nothing more

Answered cases to consult:
Binder: SEQ ID NO 88 (designed binder, not shown: small tags and cut ends, FN3 domain, hit of the apical domain panning) MLPAPKNLVVSRVTEDSARLSWTAPDAAFDSFPIKYREVLRCGEAIVLTVPGSERSYDLTGLKPGTEYTVPITGVKGGFGSSPLSAIFTT
Attribute measured: hCD71:HSA
Result value: 21

Binder: SEQ ID NO 98 (designed binder, not shown: small tags and cut ends, FN3 domain, hit of the apical domain panning) MLPAPKNLVVSRVTEDSARLSWTAPDAAFDSFGIAYDEWPEFGEAIVLTVPGSERSYDLTGLKPDTEYIVEIYGVKGGWFSWPLSAIFTT
Attribute measured: hCD71:HSA
Result value: 117

Shift focus to the following entry.
Looking up SEQ ID NO 78 (designed binder, not shown: small tags and cut ends, FN3 domain, hit of the apical domain panning) MLPAPKNLVVSRVTEDSARLSWTAPDAAFDSFGIGYYEHKRFGEAIQLSVPGSERSYDLTGLKPGTEYEVDIEGVKGGVLSWPLFAEFTT , I see its hCD71:HSA listed as 29

Reference for the values: patent US20220332795A1
